Test system: Spontaneously hypertensive male rats
Test: Experiment 1-2 Hypotensive activity (oral, 8 hours)
Format: in vivo, rat
Details: 1 mg/kg oral
I'd be grateful if you could share measured Recovering time for these entries.
Numbers only, in h.

| Molecule | Target System | Display Unit | Quantitative Readout |
| --- | --- | --- | --- |
| C#CCNC(=O)C1=C(C)NC(C)=C(C(=O)OCCCCCCCCC)C1c1ccccc1[N+](=O)[O-] (centres unmarked) [Example 79] | Spontaneously hypertensive male rats | h | 5.0 |

Now for a further molecule.
# lookup: Recovering time of C#CCNC(=O)C1=C(C)NC(C)=C(C(=O)OCCCCCCCC)C1c1ccccc1[N+](=O)[O-] (centres unmarked) [Example 78]
5.0

====

Test system: Spontaneously hypertensive male rats
Assay: Experiment 1-2 Hypotensive activity (oral, 8 hours)
Assay type: in vivo, rat
Conditions: 1 mg/kg oral
I'd be grateful if you could share measured Time until reaching to max. hypotension for these entries.

| Compound | Result |
| --- | --- |
| COC(=O)C1=C(C)NC(C)=C(C(=O)OC)C1c1ccccc1[N+](=O)[O-] [Compound A, reference compound] | 30 min |
| CCCCCCCCOC(=O)C1=C(C)NC(C)=C(C(=O)NC2CC2)C1c1ccccc1[N+](=O)[O-] (centres unmarked) [Example 82] | 180 min |
| C#CCNC(=O)C1=C(C)NC(C)=C(C(=O)OCCCCCCCC)C1c1ccccc1[N+](=O)[O-] (centres unmarked) [Example 78] | 60 min |
| CCCCCCCCCOC(=O)C1=C(C)NC(C)=C(C(=O)NC2CC2)C1c1ccccc1[N+](=O)[O-] (centres unmarked) [Example 83] | 180 min |

Now for a further compound.
# lookup: Time until reaching to max. hypotension of C#CCNC(=O)C1=C(C)NC(C)=C(C(=O)OCCCCCCCCC)C1c1ccccc1[N+](=O)[O-] (centres unmarked) [Example 79]
60 min

====

Experiment: Experiment 4-2 Acute toxicity, mice
Conditions: mouse, in vivo, po, female mice, 4 week age, 7 days
Assay Metric: LD50 at 168 h

# lookup: LD50 at 168 h of CCCCCCCCOC(=O)C1=C(C)NC(C)=C(C(=O)NC2CC2)C1c1ccccc1[N+](=O)[O-] (stereo not shown)
1140 mg/kg

====

Tested on: isolated heart
Assay: Experiment 2-2 Activity onto the isolated heart (with duration)
Design: species or system Japanese white rabbit
Conditions: Oryctolagus cuniculus; 3 μg/heart; read-out: Coronary perfusion Increase
Assay Metric: activation at 3 µg/heart (%)
One number for each entry, in %.

| Molecule | activation at 3 µg/heart (%) |
| --- | --- |
| COC(=O)C1=C(C)NC(C)=C(C(=O)OCCN(C)Cc2ccccc2)C1c1cccc([N+](=O)[O-])c1.Cl (stereo not drawn) [Compound B, hydrochloride, reference compound] | 15 |

Record activation at 3 µg/heart for all entries; do not skip any.
1. COC(=O)C1=C(C)NC(C)=C(C(=O)NC2CC2)C1c1ccccc1[N+](=O)[O-] (stereo not drawn)
2. CC1=C(C(=O)NC2CC2)C(c2ccccc2[N+](=O)[O-])C(C(=O)OCCCC(C)C)=C(C)N1 (stereo not drawn)
3. CCCOC(=O)C1=C(C)NC(C)=C(C(=O)NC2CC2)C1c1ccccc1[N+](=O)[O-] (stereo not drawn)
4. CCCCCCOC(=O)C1=C(C)NC(C)=C(C(=O)NC2CC2)C1c1ccccc1[N+](=O)[O-] (stereo not drawn)
5. COC(=O)C1=C(C)NC(C)=C(C(=O)OC)C1c1ccccc1[N+](=O)[O-] [Compound A, reference compound]

[25, 20, 30, 20, 40]
